Where these numbers come from: PubChem BioAssay (NCI)

Tested on: BT-549 breast
protocol details: NCI-60 one-dose screen, 48 h (100 = growth as untreated, 0 = no growth, -100 = all killed)
experimental conditions: 10 µM unless noted
Compounds without any hit were thinned out: in the full panel of roughly 83,000, 20% have a hit.
Param label: returns t when growth < 30%, returns f otherwise, including exact equality.

Please review the following examples before continuing.
smiles str | study system | qualitative label
NNC(=O)c1sc2nc(-c3cnccn3)cc(-c3cccs3)c2c1N | BT-549 breast | f
Cc1cn(-c2cc(NC(=O)c3cncc(C#Cc4cnc5ccc(OCCCS(C)(=O)=O)nn45)c3)cc(C(F)(F)F)c2)cn1 | BT-549 breast | t
CCOc1ccc2nc(NC(=O)Nc3ccccc3C)sc2c1 | BT-549 breast | f
CCc1ccc(NC(=O)N[C@@H](Cc2cccc(F)c2)C(=O)N[C@@H]2C(=O)N3CCC[C@H]3C(=O)N3CCCC[C@H]3C(=O)N[C@@H](CO)C(=O)N3C[C@H](C)C[C@H]3C(=O)O[C@H]2C)c(F)c1 | BT-549 breast | t
CCN(CC)CCN1C(=O)c2c(c3c4cc(Br)ccc4[nH]c3c3ccc4ccccc4c23)C1=O | BT-549 breast | f

## Task Threshold test, growth < 30%: C#C[C@]1(O)CC[C@H]2[C@@H]3CC=C4c5sc(Nc6cccc(Cl)n6)nc5CC[C@]4(C)[C@H]3CC[C@@]21C
## Result t

## Task Threshold test, growth < 30%: O=C1c2c(c3c4cc(O)ccc4oc3c3[nH]c4ccccc4c23)C(=O)N1O
## Result t

## Task Threshold test, growth < 30%: O=c1c2ccccc2nc(COc2ccccc2)n1/N=C/C=C/c1ccccc1
## Result f

---

Tested on: SF-539 CNS
protocol details: NCI-60 one-dose screen, 48 h
experimental conditions: 10 µM unless noted
The panel holds about 83,000 compounds, 20% with a hit somewhere; the sample as a whole holds those more often. Activity calls are given as the source filed them. Rule for the calls: active = growth percent below 10; inactive = the rest.
Respond with a class label; see active, inactive

Please review the following examples before continuing.
compound | qualitative label
CC[C@@](C)(NC(=O)C(C)(C)NC(=O)[C@@H](NC(=O)[C@@H]1CCCN1C(=O)C(C)(C)NC(=O)[C@H](CC(C)C)NC(=O)CNC(=O)C(C)(C)NC(=O)[C@@H](NC(=O)C(C)(C)NC(=O)[C@H](CCC(N)=O)NC(=O)[C@H](C)NC(=O)C(C)(C)NC(=O)[C@H](C)NC(=O)C(C)(C)NC(=O)[C@@H]1CCCN1C(=O)C(C)(C)NC(C)=O)C(C)C)C(C)C)C(=O)N[C@@H](CCC(N)=O)C(=O)N[C@@H](CCC(N)=O)C(=O)N[C@H](CO)Cc1ccccc1 | inactive
CN1CCN(Cc2ccc(NC(=O)c3cncc(C#Cc4cnc5ccc(NC6CCOCC6)nn45)c3)cc2C(F)(F)F)CC1 | active
COc1cc2c3c(n(CCCNC4CCCCC4)c(=O)c2cc1OC)-c1cc2c(cc1C3=O)OCO2 | active

## Task Would you mind telling me which call this test gave Cc1ccc(Cc2cnc(NC(=O)/C(C#N)=C/c3ccc(-c4ccc(Cl)cc4)o3)s2)cc1 ?
## Result inactive

---

System: SR leukemia
protocol details: NCI-60 one-dose screen, 48 h (100 = growth as untreated, 0 = no growth, -100 = all killed)
experimental conditions: 10 µM unless noted
About 83,000 compounds went through this panel and 20% of them were active in at least one assay; those are over-represented in the sample as a whole.
compounds and their reported growth
Record the value in %, omitting the unit from your answer.

compound | unit symbol | growth
Cc1csc(Nc2cccc(Nc3nc(C)cs3)c2)n1 | % | 63.9

## Task Please report the recorded growth for COc1ccc(Cn2cc3c(c2-c2cc(OC)c(OC)c(OC)c2)CCCc2cnoc2-3)cc1 .
## Result 13.4

## Task Please report the recorded growth for Oc1ccc(CSc2nnc(-c3ccc(Br)cc3)n2-c2ccccc2)c2cccnc12 .
## Result 37.7

## Task Please report the recorded growth for O=C(NNc1nc2cc(F)ccc2n2cncc12)c1cnccn1 .
## Result 17

## Task Please report the recorded growth for O=C(Nc1cc(Cl)cc(Cl)c1)Nc1ccc2oc(=O)ccc2c1 .
## Result 3.42

## Task Please report the recorded growth for O=C1/C(=C/c2ccccc2[N+](=O)[O-])Oc2ccc(O)cc21 .
## Result 2.82

## Task Please report the recorded growth for C#Cc1ccc(NC(=O)c2ccc(/C=C/C(=O)c3nccn3C)cc2)c(F)c1 .
## Result 8.09

---

Tested on: IGROV1 ovarian
protocol details: NCI-60 one-dose screen, 48 h (100 = growth as untreated, 0 = no growth, -100 = all killed)
experimental conditions: 10 µM unless noted
The panel holds about 83,000 compounds, 20% with a hit somewhere; the sample as a whole holds those more often.
measurement type: growth (%)
Record the value in %, omitting the unit from your answer.

molecule | obs value
COC(=O)[C@@]1(C)CC[C@]2(C)CC[C@]3(C)C(=CC(=O)[C@@H]4[C@@]5(C)Cc6c(n(CC#CCN7CCN(C)CC7)c7ccccc67)C(C)(C)[C@@H]5CC[C@]43C)[C@@H]2C1 | 89
CCNC(=O)Oc1ccc(/C(=C(/C)c2ccc(Cl)cc2)c2ccc(OCCN(C)C)cc2)cc1 | 64.4
COc1cc(O)c2c(c1)[C@H]1O[C@@H]1C[C@H](O)[C@H](O)C(=O)/C=C\C[C@H](C)OC2=O | 39
COc1ccc(-c2oc3cc(O)cc(O)c3c(=O)c2OC)cc1O | 39.8

## Task Please report the recorded growth for O=C(c1cccc(F)c1)n1ccc2cc(NC(=S)Nc3cccnc3)ccc21 .
## Result 97.4

---

Test system: NCI-H522 lung
protocol details: NCI-60 one-dose screen, 48 h (100 = growth as untreated, 0 = no growth, -100 = all killed)
experimental conditions: 10 µM unless noted
Experimental: Growth inhibition of the NCI-H522 human Non-Small Cell Lung tumor cell line is measured as a screen for anti-cancer activity. Cells are grown in 96 well plates and exposed to the test compound for 48 hours. Compounds are tested at a single concentration, which is 10^-5 M for most compounds. The reported endpoint is percent growth (GI% or GIPRCNT), where numbers from 0 - 100% represent growth inhibition, and numbers from -100% - 0 represent cell death. […]
Compounds without any hit were thinned out: in the full panel of roughly 83,000, 20% have a hit.
Label not satisfied if growth falls below 70%; label satisfied in every other case.

Please review the following examples before continuing.
compound | qualitative label
C=CCn1c(SCC(=O)Nc2cccc(C(=O)/C=C/c3ccccc3Cl)c2)nc2ccccc2c1=O | satisfied
CC1COc2c(N3CCN(C)CC3)c(F)cc3c(=O)c(C(=O)N/N=C/c4cc[nH]c4)cn1c23 (configuration not stated) | not satisfied
CC1(C)CC[C@]2(C(=O)N3CCCN(CC#N)CC3)CC[C@]3(C)C(=CC[C@@H]4[C@@]5(C)CC[C@H](O)C(C)(C)[C@@H]5CC[C@]43C)[C@H]2C1 | not satisfied
c1ccc(-c2c(-c3ccccc3)[n+](Cc3ccc4ccccc4c3)c(-c3ccccc3)n2Cc2ccc3ccccc3c2)cc1 | not satisfied
Cc1ccccc1/C=C/c1nn2c(-c3ccoc3C)nnc2s1 | satisfied

## Task Assess whether reported growth for CC1CCN(S(=O)(=O)c2ncsc2-c2ccccc2)CC1 sits at 70% or higher.
## Result satisfied

## Task Assess whether reported growth for Oc1ccc(CSc2nnc(-c3ccc(Oc4ccccc4)cc3)o2)c2cccnc12 sits at 70% or higher.
## Result not satisfied

---

Test system: T-47D breast
protocol details: NCI-60 one-dose screen, 48 h
experimental conditions: 10 µM unless noted
Compounds without any hit were thinned out: in the full panel of roughly 83,000, 20% have a hit. Calls of active or inactive are those of the source. The calls were made as follows: active = growth percent below 10; inactive = the rest.
Respond with a class label; see active, inactive

Please review the following examples before continuing.
compound | qualitative label
N#C/C(=C\c1ccc(Cl)cc1Cl)C(N)=O | inactive
Oc1ccc(CSc2nnc(-c3ccncc3)o2)c2cccnc12 | inactive
O=C(CSc1ccc(-c2nc3ccccc3[nH]2)cn1)N1CCN(c2ccccc2F)CC1 | inactive
CCn1c2ccc(/C=N/NS(=O)(=O)CCN(C)C)cc2c2cc(/C=N/NS(=O)(=O)CCN(C)C)ccc21 | inactive
CCN(CC)c1ccc2cc(C(=O)NCCOCCOCCOCCn3cc(CCC(=O)Nc4ccc(C(=O)c5ccc(NC(=O)OC(C)(C)C)cc5)cc4)nn3)c(=O)oc2c1 | active

## Task Would you mind telling me which call this test gave CCOC(=O)c1c(Nc2ccccc2)nn2c(-c3ccc(OC)c(OC)c3)ccnc12 ?
## Result inactive

## Task Would you mind telling me which call this test gave COc1ccc(NC(=O)[C@H](C)NC(=O)OC(C)(C)C)cc1C(=O)Nc1cccc(-c2cc(=O)c3c(OC)c(OC)c(OC)cc3o2)c1 ?
## Result active

## Task Would you mind telling me which call this test gave CCOC(=O)c1nn(-c2ccccc2)c(=O)c2c(N)c(C#N)c(-c3cccs3)cc12 ?
## Result inactive

## Task Would you mind telling me which call this test gave Cc1ccc(-c2cc(-c3cccc4ccccc34)n3c(n2)nc2ccccc23)cc1 ?
## Result inactive

## Task Would you mind telling me which call this test gave Cc1ccc(/C=C/CC(=O)Nc2ccc(C(=O)Nc3ccc(F)cc3N)nc2)cn1 ?
## Result inactive

## Task Would you mind telling me which call this test gave CCC(CC)N1C(=O)/C(=c2\sc3n(c2=O)C2C(NN=3)N(CC)C(=O)N2CC)c2ccccc21 (stereo not given) ?
## Result inactive

## Task Would you mind telling me which call this test gave Cc1ccc(C2CC(c3ccc(Nc4nc(NCCO)nc(Nc5ccc(Cl)cc5)n4)cc3)=Nc3c(N)nc(N)nc3N2)cc1 (stereo not given) ?
## Result inactive

## Task Would you mind telling me which call this test gave N/C(=N\c1nc2c(Cl)cccc2s1)C(Cl)(Cl)Cl ?
## Result inactive

## Task Would you mind telling me which call this test gave CNC(=O)c1c(NC(=O)c2ccc(F)cc2F)sc2c1CCC(=O)C2 ?
## Result active

## Task Would you mind telling me which call this test gave CCOC(=O)/C(F)=C/C1CC1C1CCCCC1 (stereo not given) ?
## Result inactive

## Task Would you mind telling me which call this test gave CS(=O)(=O)c1nccc(-c2c(-c3ccc(F)c(OCc4ccc(F)cc4)c3)nc3sccn23)n1 ?
## Result active

## Task Would you mind telling me which call this test gave COc1cc(C2=NN(C(C)=O)C(c3ccc(N4CCOCC4)cc3)C2)cc(OC)c1OC (stereo not given) ?
## Result inactive

## Task Would you mind telling me which call this test gave O=C(Nc1cccc(Cl)c1)Nc1nc2ccc([N+](=O)[O-])cc2s1 ?
## Result active

## Task Would you mind telling me which call this test gave COC(=O)c1c(C(=O)OC)c2n(CC(=O)Nc3cccc4cccnc34)c3ccccc3n2c1C(=O)c1ccc(C)cc1 ?
## Result inactive

## Task Would you mind telling me which call this test gave CC(=O)Oc1ccc(CCN2C(=O)CSC2=S)cc1 ?
## Result inactive
